Origin of values: patent US11332483B2

tested on: A549 lung cancer cells; test: Cell proliferation (MTT) assay in A549 lung cancer cells; assay type: cell-based, human; details: Homo sapiens; A549 lung cancer cells, MTT, 72 h; read-out: IC50
pIC50: −log10 of the molar value.

Compound | System name | pIC50
COc1cccc2c1C(=O)c1c(O)c3c(c(O)c1C2=O)C[C@@](O)(C(=O)CO)C[C@@H]3O[C@H]1C[C@H](N)[C@H](O)[C@H](C)O1 [Doxorubicin, doxorubicin] | A549 lung cancer cells | 6.99

----------
experiment: Electrochemical analysis (differential pulse voltammetry) in DMSO; assay type: physicochemical; details: 0.1M [N(nBu)4][PF6], 0.1 mM analyte, vs SCE
Readout type: E1/2^b (V) DPV, second reduction, formation of quinone dianion

Molecule | Data value
Cc1cc(C)c(-n2c3c([n+](-c4c(C)cc(C)cc4C)[c]2[Au-][c]2n(-c4c(C)cc(C)cc4C)c4c([n+]2-c2c(C)cc(C)cc2C)C(=O)c2ccccc2C4=O)C(=O)c2ccccc2C3=O)c(C)c1.[Cl-] | −1.31
Cc1cc(C)c(-n2c3c([n+](-c4c(C)cc(C)cc4C)[c]2[Au-][Cl])C(=O)c2ccccc2C3=O)c(C)c1 | −1.31
Cc1cc(C)c(-n2c[n+](-c3c(C)cc(C)cc3C)c3c2C(=O)c2ccccc2C3=O)c(C)c1.[Cl-] [Compound 4[H][Cl], reference compound] | −1.15
Cc1cc(C)c(-n2c3c([n+](-c4c(C)cc(C)cc4C)[c]2[Au-][c]2n(-c4c(C)cc(C)cc4C)c4c([n+]2-c2c(C)cc(C)cc2C)C(=O)c2ccccc2C4=O)C(=O)c2ccccc2C3=O)c(C)c1.[Cl][Ag-][Cl] | −1.31

----------
test system: A549 lung cancer cells; assay: Cell proliferation (MTT) assay in A549 lung cancer cells; assay type: cell-based, human; conditions: A549 lung cancer cells, MTT, 72 h; listed as 4; read-out: IC50

Molecule | IC50 (nM)
Cc1cc(C)c(-n2c[n+](-c3c(C)cc(C)cc3C)c3c2C(=O)c2ccccc2C3=O)c(C)c1.[Cl-] [Compound 4[H][Cl], reference compound] | 994

----------
Listed next: entries and their corresponding E1/2 (V) DPV, first reduction, formation of semiquinone radical.
assay: Electrochemical analysis (differential pulse voltammetry) in DMSO; assay type: physicochemical; settings: 0.1M [N(nBu)4][PF6], 0.1 mM analyte, vs SCE
Readout type: E1/2 (V) DPV, first reduction, formation of semiquinone radical

Molecule | Data value
Cc1cc(C)c(-n2c3c([n+](-c4c(C)cc(C)cc4C)[c]2[Au-][c]2n(-c4c(C)cc(C)cc4C)c4c([n+]2-c2c(C)cc(C)cc2C)C(=O)c2ccccc2C4=O)C(=O)c2ccccc2C3=O)c(C)c1.[Cl-] [Compound 2] | −0.46
Cc1cc(C)c(-n2c3c([n+](-c4c(C)cc(C)cc4C)[c]2[Au-][c]2n(-c4c(C)cc(C)cc4C)c4c([n+]2-c2c(C)cc(C)cc2C)C(=O)c2ccccc2C4=O)C(=O)c2ccccc2C3=O)c(C)c1.[Cl][Ag-][Cl] [Compound 1] | −0.42
Cc1cc(C)c(-n2c3c([n+](-c4c(C)cc(C)cc4C)[c]2[Au-][Cl])C(=O)c2ccccc2C3=O)c(C)c1 [Compound 3] | −0.47
Cc1cc(C)c(-n2c[n+](-c3c(C)cc(C)cc3C)c3c2C(=O)c2ccccc2C3=O)c(C)c1.[Cl-] [Compound 4[H][Cl], reference compound] | −0.38
